- assay.remarks: Pharmacokinetics in C57BL/6 mice (iv and oral)
- Assay type: in vivo
- experimental.context: mouse, plasma; male C57BL/6 mice; iv 2.0 mg/kg, oral 10 mg/kg (route not given); read-out: Half-life T1/2 (converted)
test.readout: half-life (min)
Number in min, nothing else.

Prompt: Bench note: what half-life did COc1ccccc1[C@H](Cn1nc(C2(C(=O)O)CCOCC2)c(=O)c2c(C)c(-c3ncco3)sc21)OC1CCOCC1 [WX008B] show?
Response: 36

Prompt: Bench note: what half-life did COc1ccccc1[C@H](Cn1nc(C(F)(F)C(=O)O)c(=O)c2c(C)c(-c3ncco3)sc21)OC1CCOCC1 [WX009B] show?
Response: 36.6

====

Consider the following molecules; for each one, report its log10(IC50).
- measured.on: human acetyl-CoA carboxylase 2 (hACC2) (Homo sapiens, UniProt O00763)
- Sequence (O00763 whole entry): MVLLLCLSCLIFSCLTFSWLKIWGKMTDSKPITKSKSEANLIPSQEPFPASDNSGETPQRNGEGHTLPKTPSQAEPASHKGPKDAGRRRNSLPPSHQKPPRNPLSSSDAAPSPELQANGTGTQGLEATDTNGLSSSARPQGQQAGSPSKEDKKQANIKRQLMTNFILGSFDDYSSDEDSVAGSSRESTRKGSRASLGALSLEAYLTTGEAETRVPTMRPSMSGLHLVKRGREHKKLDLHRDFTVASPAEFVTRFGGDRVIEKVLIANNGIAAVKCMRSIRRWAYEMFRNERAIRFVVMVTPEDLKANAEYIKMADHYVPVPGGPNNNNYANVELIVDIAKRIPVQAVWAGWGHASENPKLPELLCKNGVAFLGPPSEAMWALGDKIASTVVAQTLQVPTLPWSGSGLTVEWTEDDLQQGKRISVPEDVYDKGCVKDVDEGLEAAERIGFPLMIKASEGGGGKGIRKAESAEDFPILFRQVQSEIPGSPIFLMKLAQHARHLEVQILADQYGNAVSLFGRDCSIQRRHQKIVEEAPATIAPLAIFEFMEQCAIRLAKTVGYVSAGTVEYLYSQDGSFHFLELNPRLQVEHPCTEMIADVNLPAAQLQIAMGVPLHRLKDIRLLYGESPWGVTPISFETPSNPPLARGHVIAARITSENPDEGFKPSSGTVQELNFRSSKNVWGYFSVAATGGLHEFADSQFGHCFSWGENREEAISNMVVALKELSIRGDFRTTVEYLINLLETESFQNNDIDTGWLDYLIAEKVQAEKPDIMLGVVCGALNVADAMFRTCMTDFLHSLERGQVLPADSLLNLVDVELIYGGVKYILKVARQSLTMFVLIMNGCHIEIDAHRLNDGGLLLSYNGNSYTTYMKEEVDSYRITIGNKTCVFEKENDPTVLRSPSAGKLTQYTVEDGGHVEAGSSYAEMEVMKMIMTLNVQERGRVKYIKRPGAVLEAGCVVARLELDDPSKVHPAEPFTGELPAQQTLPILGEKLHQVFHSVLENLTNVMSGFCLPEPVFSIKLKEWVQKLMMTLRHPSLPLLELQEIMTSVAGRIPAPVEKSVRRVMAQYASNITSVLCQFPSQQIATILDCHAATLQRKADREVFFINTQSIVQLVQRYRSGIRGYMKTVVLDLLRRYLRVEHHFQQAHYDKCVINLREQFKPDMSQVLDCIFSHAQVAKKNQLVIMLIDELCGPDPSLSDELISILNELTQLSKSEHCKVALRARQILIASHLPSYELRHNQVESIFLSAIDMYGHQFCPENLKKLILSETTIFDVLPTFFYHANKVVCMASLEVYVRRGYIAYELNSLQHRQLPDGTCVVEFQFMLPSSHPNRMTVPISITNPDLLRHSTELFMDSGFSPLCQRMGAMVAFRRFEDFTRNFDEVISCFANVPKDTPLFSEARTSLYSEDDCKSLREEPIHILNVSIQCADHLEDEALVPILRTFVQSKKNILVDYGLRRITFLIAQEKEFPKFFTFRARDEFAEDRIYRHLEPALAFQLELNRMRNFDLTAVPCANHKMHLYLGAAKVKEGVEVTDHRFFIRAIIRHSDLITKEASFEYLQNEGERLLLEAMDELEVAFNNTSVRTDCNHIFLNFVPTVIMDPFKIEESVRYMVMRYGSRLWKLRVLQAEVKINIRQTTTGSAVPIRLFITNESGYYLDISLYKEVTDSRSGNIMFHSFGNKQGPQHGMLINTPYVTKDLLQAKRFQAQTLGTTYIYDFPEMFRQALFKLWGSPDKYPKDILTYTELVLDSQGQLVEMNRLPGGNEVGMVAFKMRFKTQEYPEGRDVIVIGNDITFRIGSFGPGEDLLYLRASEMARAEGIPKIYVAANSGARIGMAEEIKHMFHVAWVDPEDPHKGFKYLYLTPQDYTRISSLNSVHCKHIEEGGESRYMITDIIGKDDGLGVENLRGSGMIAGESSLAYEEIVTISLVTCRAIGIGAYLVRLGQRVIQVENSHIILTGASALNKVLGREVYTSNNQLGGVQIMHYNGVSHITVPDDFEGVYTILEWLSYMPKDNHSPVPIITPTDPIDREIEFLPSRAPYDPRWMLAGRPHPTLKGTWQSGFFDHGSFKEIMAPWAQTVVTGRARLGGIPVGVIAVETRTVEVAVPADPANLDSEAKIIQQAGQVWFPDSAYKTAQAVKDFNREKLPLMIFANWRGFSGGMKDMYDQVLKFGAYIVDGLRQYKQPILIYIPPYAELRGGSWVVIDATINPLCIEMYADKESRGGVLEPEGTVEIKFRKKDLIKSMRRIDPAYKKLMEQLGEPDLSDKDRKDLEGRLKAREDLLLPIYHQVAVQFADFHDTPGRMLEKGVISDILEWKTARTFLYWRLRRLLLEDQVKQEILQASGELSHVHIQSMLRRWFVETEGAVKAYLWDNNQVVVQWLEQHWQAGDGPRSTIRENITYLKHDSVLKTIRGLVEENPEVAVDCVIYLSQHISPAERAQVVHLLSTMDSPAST
- assay.remarks: In vitro ACC enzyme inhibition (ADP luminescence), hACC2
- Assay type: biochemical
- experimental.context: human ACC2 enzyme; 15 min pre-incubation, 1 hour reaction at room temperature
Lab note - IC50 converted to log10 from values in nM.

Prompt: Bench note: what log10(IC50) did COc1ccccc1C(Cn1nc(C(C)(C)C(=O)O)c(=O)c2c(C)c(-c3ncco3)sc21)OC1CCN(S(C)(=O)=O)CC1 (racemic) [WX012] show?
Response: 0.76

Prompt: Bench note: what log10(IC50) did COc1ccccc1[C@H](Cn1nc(C(F)(F)C(=O)O)c(=O)c2c(C)c(-c3ncco3)sc21)OC1CCOCC1 [WX009B] show?
Response: 1.04

Prompt: Bench note: what log10(IC50) did COc1ccccc1[C@H](Cn1nc(C2(C(=O)O)CCOCC2)c(=O)c2c(C)c(-c3ncco3)sc21)OC1CCOCC1 [WX008B] show?
Response: 1.14

Prompt: Bench note: what log10(IC50) did COc1ccccc1C(Cn1nc(C2(C(=O)O)CCCC2)c(=O)c2c(C)c(-c3ncco3)sc21)OC1CCOCC1 (single isomer, unassigned) [WX001B] show?
Response: 0.90

Prompt: Bench note: what log10(IC50) did COc1ccccc1[C@H](Cn1nc(C2(C(=O)O)CCCCC2)c(=O)c2c(C)c(-c3ncco3)sc21)OC1CCOCC1 [WX007B] show?
Response: 1.10

Prompt: Bench note: what log10(IC50) did COC(=O)N1CCC(OC(Cn2nc(C(C)(C)C(=O)O)c(=O)c3c(C)c(-c4ncco4)sc32)c2ccccc2OC)CC1 (racemic) [WX015] show?
Response: 0.85

Prompt: Bench note: what log10(IC50) did COc1ccc(F)cc1[C@H](Cn1nc(C(C)(C)C(=O)O)c(=O)c2c(C)c(-c3ncco3)sc21)OC1CCOCC1 [WX016B] show?
Response: 0.68

Prompt: Bench note: what log10(IC50) did COc1ccccc1C(Cn1nc(CC(=O)O)c(=O)c2c(C)c(-c3ncco3)sc21)OC1CCOCC1 (single isomer, unassigned) [WX003B] show?
Response: 0.53

Prompt: Bench note: what log10(IC50) did COc1ccccc1C(Cn1nc(C2(C(=O)O)CCNCC2)c(=O)c2c(C)c(-c3ncco3)sc21)OC1CCOCC1 (stereo not shown) [WX010] show?
Response: 1.85

Prompt: Bench note: what log10(IC50) did COc1ccccc1C(Cn1nc(C2(C(=O)O)CC2)c(=O)c2c(C)c(-c3ncco3)sc21)OC1CCOCC1 (stereo not shown) [WX005] show?
Response: 1.65
